Every entry's value here was drawn from ChEMBL document CHEMBL1201862.

Entries and their measured GI50 follow.
# System: Hs-578T
# MEASUREMENT DESCRIPTION: NCI tumour cell line growth inhibition, 48 h
Calls of active or inactive are those of the source. No stated cut-off is given here; in the data, active = GI50 up to about 1.1 µM and inactive = higher.
OBSERVATION TYPE: GI50

{"MOLECULE": "CC1(C)CC[C@]2(C(=O)O)CC[C@]3(C)C(=CC[C@@H]4[C@@]5(C)CC[C@H](OC6OC(C(=O)O)C(O)C(O)C6O)C(C)(C)[C@@H]5CC[C@]43C)[C@@H]2C1 (stereo not given in full)", "VALUE REPORTED": "21.5 µM (inactive)"}
{"MOLECULE": "COC(=O)c1cc(NC(=O)Cn2c3ccccc3c3ccccc32)cn1C", "VALUE REPORTED": "14.2 µM (inactive)"}
{"MOLECULE": "c1cc2cc(c1)CN1CCNCCN(CCNCC1)Cc1cccc(c1)CN1CCNCCN(CCNCC1)C2", "VALUE REPORTED": "> 100 µM (inactive)"}
{"MOLECULE": "OC1(c2ccc(Cl)cc2)c2ccc3ccccc3c2C2=N[C@H]3CCCC[C@@H]3N21 (stereo not given in full)", "VALUE REPORTED": "1.19 µM (inactive)"}
{"MOLECULE": "CC(C)(Cl)C(Br)CC/C(=C/CCl)CBr.CC(C)(Cl)C(Br)CC/C(=C\\CCl)CBr (stereo not given)", "VALUE REPORTED": "3.67 µM (inactive)"}
{"MOLECULE": "CC1=NN(c2ccc(S(=O)(=O)O)cc2)C2(C1)C(Cl)C(=O)N2c1nc2ccccc2s1 (stereo not given)", "VALUE REPORTED": "> 100 µM (inactive)"}
{"MOLECULE": "OC1CCCN(C2(c3cccs3)CCCCC2)C1 (stereo not given)", "VALUE REPORTED": "> 100 µM (inactive)"}
{"MOLECULE": "CC(NC(=O)C(N)CC(=O)O)NC(=O)N1CCCC1 (stereo not given)", "VALUE REPORTED": "> 100 µM (inactive)"}
{"MOLECULE": "CCSc1nc(=S)n(-c2ccccc2)c(C)c1C(C)=O", "VALUE REPORTED": "> 100 µM (inactive)"}
{"MOLECULE": "Clc1ccc(Oc2ccc(/N=C/c3ccc(Cl)cc3Cl)cc2Cl)cc1", "VALUE REPORTED": "25.9 µM (inactive)"}
{"MOLECULE": "Clc1cc2nnn(C3CCCCO3)c2cc1Cl (stereo not given)", "VALUE REPORTED": "35.4 µM (inactive)"}
{"MOLECULE": "COc1cc(Nc2nc3ccccc3nc2C(=O)O)cc(OC)c1OC", "VALUE REPORTED": "20.8 µM (inactive)"}
{"MOLECULE": "COC(=O)C1CC2CCC1(O[Si](C(C)C)(C(C)C)C(C)C)C(O)C2 (stereo not given)", "VALUE REPORTED": "18.1 µM (inactive)"}
{"MOLECULE": "COc1ccccc1N1CCN(S(=O)(=O)c2ccc(Cl)cc2)C1=N", "VALUE REPORTED": "78 µM (inactive)"}
{"MOLECULE": "O=c1oc2ccc(-n3c(=O)c4ccccc4c4ccccc4c3=O)cc2c2ccccc12", "VALUE REPORTED": "27 µM (inactive)"}
{"MOLECULE": "COc1ccc(C2CC(c3ccccc3)=Nc3c(-c4ccccc4)nnn32)cc1 (stereo not given)", "VALUE REPORTED": "51.2 µM (inactive)"}
{"MOLECULE": "COC(=O)C1(Cc2ccc3c(c2)CCC3)Cc2ccc3c(c2C1O)CCC3 (stereo not given)", "VALUE REPORTED": "17.3 µM (inactive)"}
{"MOLECULE": "c1ccc2sc(C3(N4CCCCC4)CCCC3)cc2c1", "VALUE REPORTED": "14.1 µM (inactive)"}
{"MOLECULE": "Cn1/c(=N\\c2ccc(Cl)cc2)sc2ccccc21", "VALUE REPORTED": "62.4 µM (inactive)"}
{"MOLECULE": "CCOC(=O)CCC(NC(=O)OCc1ccccc1)C(=O)NNC(=O)OC(C)(C)C (stereo not given)", "VALUE REPORTED": "> 100 µM (inactive)"}
{"MOLECULE": "Cn1c(=O)c2nc(SCCN3CCOCC3)[nH]c2n(C)c1=S", "VALUE REPORTED": "> 100 µM (inactive)"}
{"MOLECULE": "O=C1C=C(OCCCl)C(=O)c2c(O)ccc(O)c21", "VALUE REPORTED": "3.98 µM (inactive)"}
{"MOLECULE": "CCc1ncc(C(C)(O)c2ccccc2)n1Cc1ccccc1 (stereo not given)", "VALUE REPORTED": "33.4 µM (inactive)"}
{"MOLECULE": "CNC(Cc1ccccc1)c1cccc(OC)c1O (stereo not given)", "VALUE REPORTED": "> 100 µM (inactive)"}
{"MOLECULE": "CC(C)=CCC[C@@H](C)C1=C(O)C(=O)C(C)=C(Nc2ccccc2)C1=O", "VALUE REPORTED": "31.8 µM (inactive)"}
{"MOLECULE": "C(=N\\c1nc2cc3sc(/N=C/c4cccs4)nc3cc2s1)/c1cccs1", "VALUE REPORTED": "> 100 µM (inactive)"}
{"MOLECULE": "O=C1/C(=C/c2ccccc2[N+](=O)[O-])N=C(c2ccccc2)N1C1Nc2cc3c(cc2S1)NC(N1C(=O)/C(=C/c2ccccc2[N+](=O)[O-])N=C1c1ccccc1)S3 (stereo not given)", "VALUE REPORTED": "50 µM (inactive)"}
{"MOLECULE": "COC(=O)N[C@H](C(=O)NC(OCc1ccccc1)C1COC(C)(C)O1)C(C)O[Si](C)(C)C(C)(C)C (stereo not given in full)", "VALUE REPORTED": "> 100 µM (inactive)"}
{"MOLECULE": "O=C1CCCC/C1=C\\c1ccc([N+](=O)[O-])cc1", "VALUE REPORTED": "28.3 µM (inactive)"}
{"MOLECULE": "COC(=O)[C@]1(c2cc3ccccc3n2S(=O)(=O)c2ccccc2)CC2CN(C(C)=O)C1CC2=O (stereo not given in full)", "VALUE REPORTED": "5.94 µM (inactive)"}
